System Name: Hepatocyte growth factor receptor (Homo sapiens)
Sequence (P08581 whole entry): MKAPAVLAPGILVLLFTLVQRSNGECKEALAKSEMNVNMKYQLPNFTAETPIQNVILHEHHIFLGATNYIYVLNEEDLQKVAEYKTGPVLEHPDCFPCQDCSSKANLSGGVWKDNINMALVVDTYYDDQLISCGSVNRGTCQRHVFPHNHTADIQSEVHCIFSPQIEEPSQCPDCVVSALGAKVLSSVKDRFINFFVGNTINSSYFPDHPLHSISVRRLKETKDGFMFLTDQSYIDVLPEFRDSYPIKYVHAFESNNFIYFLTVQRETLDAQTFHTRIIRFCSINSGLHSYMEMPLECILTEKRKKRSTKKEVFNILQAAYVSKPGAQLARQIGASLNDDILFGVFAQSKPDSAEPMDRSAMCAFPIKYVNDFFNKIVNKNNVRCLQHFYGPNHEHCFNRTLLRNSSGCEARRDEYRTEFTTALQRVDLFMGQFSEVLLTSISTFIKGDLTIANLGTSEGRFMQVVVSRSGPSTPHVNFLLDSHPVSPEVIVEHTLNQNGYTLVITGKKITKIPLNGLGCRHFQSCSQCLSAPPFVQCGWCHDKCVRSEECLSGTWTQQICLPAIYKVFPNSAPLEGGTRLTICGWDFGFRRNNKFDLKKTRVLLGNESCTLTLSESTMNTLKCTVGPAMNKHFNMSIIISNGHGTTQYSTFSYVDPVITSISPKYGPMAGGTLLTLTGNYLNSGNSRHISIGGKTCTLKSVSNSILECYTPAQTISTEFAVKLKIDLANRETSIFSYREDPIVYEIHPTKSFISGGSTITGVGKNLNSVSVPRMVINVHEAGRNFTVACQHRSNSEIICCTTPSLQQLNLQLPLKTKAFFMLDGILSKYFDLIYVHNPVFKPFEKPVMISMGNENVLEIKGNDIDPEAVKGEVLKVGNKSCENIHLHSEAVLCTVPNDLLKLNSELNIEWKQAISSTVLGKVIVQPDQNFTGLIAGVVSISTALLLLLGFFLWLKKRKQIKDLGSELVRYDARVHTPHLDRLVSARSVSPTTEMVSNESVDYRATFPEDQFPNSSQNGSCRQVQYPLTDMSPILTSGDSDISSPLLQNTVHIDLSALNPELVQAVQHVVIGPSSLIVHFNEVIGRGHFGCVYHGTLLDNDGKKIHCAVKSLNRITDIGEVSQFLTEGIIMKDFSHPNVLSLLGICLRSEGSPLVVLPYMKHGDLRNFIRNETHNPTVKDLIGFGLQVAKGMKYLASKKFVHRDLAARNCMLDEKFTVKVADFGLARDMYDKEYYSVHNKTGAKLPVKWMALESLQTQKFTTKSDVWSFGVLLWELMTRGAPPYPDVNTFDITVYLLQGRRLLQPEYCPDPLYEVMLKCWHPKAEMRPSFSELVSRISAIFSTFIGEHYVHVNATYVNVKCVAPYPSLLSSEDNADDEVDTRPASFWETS
Procedure Text: Inhibition of c-MET (unknown origin) after 60 mins by ELISA
Measured Quantity: pIC50
Bear in mind: pIC50 is minus log10 of a mol/L concentration; give just that figure.

Measured pIC50, `C[C@@H](Oc1c[nH]c(=O)c(C(=O)Nc2ccc(N3CCN(C)CC3)cc2)c1)c1c(Cl)ccc(F)c1Cl` : 7.92

* * *

System Name: Receptor tyrosine-protein kinase erbB-2 (Homo sapiens, UniProt P04626)
Sequence (P04626 whole entry): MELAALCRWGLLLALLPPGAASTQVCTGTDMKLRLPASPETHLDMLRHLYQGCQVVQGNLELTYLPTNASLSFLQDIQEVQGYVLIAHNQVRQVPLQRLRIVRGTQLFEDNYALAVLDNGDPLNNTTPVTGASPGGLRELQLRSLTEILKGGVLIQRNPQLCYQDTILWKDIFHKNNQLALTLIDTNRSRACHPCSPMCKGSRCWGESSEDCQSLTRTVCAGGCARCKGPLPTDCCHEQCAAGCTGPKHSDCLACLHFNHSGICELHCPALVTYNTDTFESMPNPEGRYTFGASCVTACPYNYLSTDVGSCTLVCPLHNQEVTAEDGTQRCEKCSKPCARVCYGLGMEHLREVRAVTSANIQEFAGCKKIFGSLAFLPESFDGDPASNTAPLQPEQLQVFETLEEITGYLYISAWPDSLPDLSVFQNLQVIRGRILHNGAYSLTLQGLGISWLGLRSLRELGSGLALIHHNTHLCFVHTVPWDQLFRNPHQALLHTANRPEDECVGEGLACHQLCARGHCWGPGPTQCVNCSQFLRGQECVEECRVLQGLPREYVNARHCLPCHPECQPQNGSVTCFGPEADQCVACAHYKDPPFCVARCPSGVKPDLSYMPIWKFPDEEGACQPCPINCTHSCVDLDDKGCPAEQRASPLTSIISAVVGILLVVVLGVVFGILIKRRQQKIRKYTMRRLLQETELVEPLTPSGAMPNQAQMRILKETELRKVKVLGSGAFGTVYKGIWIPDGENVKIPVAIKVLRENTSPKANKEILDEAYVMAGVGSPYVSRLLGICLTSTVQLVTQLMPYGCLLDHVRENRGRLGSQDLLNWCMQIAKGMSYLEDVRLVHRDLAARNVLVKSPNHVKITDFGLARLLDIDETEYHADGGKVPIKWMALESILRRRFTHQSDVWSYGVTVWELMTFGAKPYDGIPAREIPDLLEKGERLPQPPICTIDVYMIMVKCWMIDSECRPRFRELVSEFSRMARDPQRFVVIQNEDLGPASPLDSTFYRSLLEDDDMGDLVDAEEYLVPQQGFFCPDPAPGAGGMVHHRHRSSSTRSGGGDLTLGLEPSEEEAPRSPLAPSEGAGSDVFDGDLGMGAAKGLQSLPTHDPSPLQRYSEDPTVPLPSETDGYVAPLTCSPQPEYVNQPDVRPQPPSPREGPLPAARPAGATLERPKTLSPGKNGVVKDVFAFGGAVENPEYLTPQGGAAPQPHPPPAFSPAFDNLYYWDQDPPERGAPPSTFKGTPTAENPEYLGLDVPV
pIC50: −log10 of the molar value.
Measured Quantity: pIC50

Given the molecule `C[C@@H](Oc1c[nH]c(=O)c(C(=O)Nc2ccc(N3CCN(C)CC3)cc2)c1)c1c(Cl)ccc(F)c1Cl` and test system Receptor tyrosine-protein kinase erbB-2 (Homo sapiens, UniProt P04626), the measured pIC50 is < 6.00

* * *

System Name: Vascular endothelial growth factor receptor 1 (Homo sapiens, UniProt P17948)
Sequence (P17948 whole entry): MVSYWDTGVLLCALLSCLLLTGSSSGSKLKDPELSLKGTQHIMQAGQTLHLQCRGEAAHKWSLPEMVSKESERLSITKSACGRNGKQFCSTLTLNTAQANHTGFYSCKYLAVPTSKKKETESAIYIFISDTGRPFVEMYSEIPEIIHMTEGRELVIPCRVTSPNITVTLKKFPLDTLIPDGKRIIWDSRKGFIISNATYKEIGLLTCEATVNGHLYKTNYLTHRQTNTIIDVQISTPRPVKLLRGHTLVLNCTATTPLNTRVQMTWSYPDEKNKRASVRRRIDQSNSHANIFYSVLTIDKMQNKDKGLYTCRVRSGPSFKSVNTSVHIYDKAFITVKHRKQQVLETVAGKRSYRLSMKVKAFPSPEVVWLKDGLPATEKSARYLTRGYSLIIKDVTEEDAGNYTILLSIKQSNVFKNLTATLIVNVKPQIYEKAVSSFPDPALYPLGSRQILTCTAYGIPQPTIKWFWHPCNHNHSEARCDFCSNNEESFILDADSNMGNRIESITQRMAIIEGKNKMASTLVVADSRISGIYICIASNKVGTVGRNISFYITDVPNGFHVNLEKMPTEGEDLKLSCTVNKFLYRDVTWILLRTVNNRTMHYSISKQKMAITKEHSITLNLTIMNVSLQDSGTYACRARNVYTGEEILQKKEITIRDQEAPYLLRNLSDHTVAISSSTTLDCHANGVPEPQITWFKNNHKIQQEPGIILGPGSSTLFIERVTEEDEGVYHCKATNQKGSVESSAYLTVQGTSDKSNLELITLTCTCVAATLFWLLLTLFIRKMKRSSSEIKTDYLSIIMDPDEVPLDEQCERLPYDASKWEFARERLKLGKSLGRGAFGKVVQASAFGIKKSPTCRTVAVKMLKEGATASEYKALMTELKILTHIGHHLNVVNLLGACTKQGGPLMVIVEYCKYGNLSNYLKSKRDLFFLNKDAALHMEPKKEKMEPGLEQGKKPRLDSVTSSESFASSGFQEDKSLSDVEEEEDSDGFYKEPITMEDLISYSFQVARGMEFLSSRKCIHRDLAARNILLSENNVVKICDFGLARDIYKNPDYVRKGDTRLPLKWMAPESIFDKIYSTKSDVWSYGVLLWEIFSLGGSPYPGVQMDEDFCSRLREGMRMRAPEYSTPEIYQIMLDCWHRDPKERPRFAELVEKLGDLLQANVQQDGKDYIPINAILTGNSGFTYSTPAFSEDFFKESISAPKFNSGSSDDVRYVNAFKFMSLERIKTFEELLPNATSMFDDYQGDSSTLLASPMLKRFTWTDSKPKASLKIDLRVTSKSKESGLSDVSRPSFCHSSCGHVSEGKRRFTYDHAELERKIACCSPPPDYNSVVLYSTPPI
Measured Quantity: IC50

Reported Vascular endothelial growth factor receptor 1 (Homo sapiens, UniProt P17948) IC50 for item `C[C@@H](Oc1c[nH]c(=O)c(C(=O)Nc2ccc(N3CCN(C)CC3)cc2)c1)c1c(Cl)ccc(F)c1Cl` was > 1000 nM

* * *

System Name: Macrophage-stimulating protein receptor (Homo sapiens, UniProt Q04912)
Procedure Text: Inhibition of RON (unknown origin)
Measured Quantity: IC50 (nM)
Provide only the numeric value, understood in nM.

The measured IC50 associated with `C[C@@H](Oc1c[nH]c(=O)c(C(=O)Nc2ccc(N3CCN(C)CC3)cc2)c1)c1c(Cl)ccc(F)c1Cl` reads 446

* * *

System Name: UniProt Q06418
Measured Quantity: IC50

Reported UniProt Q06418 IC50 for item `C[C@@H](Oc1c[nH]c(=O)c(C(=O)Nc2ccc(N3CCN(C)CC3)cc2)c1)c1c(Cl)ccc(F)c1Cl` was > 1 µM

* * *

System Name: Proto-oncogene tyrosine-protein kinase receptor Ret (Homo sapiens, UniProt P07949)
Sequence (P07949 whole entry): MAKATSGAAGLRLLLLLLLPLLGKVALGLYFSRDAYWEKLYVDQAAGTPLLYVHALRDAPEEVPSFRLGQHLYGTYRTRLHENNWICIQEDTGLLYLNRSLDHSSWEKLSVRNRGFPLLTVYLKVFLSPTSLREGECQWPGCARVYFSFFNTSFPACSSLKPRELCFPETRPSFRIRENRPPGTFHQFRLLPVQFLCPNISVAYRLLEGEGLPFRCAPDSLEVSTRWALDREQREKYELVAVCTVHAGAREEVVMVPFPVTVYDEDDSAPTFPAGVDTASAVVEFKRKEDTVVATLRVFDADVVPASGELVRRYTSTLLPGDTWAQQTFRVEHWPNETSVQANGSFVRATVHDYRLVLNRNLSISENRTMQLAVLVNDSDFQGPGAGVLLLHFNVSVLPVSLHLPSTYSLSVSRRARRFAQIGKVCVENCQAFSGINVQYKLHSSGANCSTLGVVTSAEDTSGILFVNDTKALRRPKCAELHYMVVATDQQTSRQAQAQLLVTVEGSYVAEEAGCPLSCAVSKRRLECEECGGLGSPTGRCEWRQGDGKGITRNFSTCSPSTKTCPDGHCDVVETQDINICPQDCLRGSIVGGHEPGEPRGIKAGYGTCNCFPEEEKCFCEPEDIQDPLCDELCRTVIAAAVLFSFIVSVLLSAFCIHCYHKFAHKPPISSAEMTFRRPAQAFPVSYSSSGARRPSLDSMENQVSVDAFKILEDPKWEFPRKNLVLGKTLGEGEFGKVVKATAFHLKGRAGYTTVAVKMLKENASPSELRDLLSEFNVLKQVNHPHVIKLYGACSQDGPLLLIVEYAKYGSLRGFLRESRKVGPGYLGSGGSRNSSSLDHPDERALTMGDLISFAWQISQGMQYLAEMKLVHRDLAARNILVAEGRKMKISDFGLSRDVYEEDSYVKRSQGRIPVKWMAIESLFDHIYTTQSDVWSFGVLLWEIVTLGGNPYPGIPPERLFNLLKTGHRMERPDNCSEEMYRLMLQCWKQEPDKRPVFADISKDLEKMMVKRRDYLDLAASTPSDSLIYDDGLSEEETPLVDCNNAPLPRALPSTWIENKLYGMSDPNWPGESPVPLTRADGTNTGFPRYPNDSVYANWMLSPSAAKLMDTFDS
Measured Quantity: IC50

I looked up `C[C@@H](Oc1c[nH]c(=O)c(C(=O)Nc2ccc(N3CCN(C)CC3)cc2)c1)c1c(Cl)ccc(F)c1Cl` and its IC50 for Proto-oncogene tyrosine-protein kinase receptor Ret (Homo sapiens, UniProt P07949) was > 1000 nM

Data provenance: ChEMBL document CHEMBL2375342
